# assay.comment: Compartmental analysis of plasma and tumor 1,25
# condition.set: female, nu/nu, mouse, plasma, ip, 20 ug/kg
measurement.label: Vd/F (L/kg)
Respond numerically; units are L/kg and should not be typed.

Asked: Give the measured Vd/F for C=C1/C(=C\C=C2/CCC[C@]3(C)[C@@H]([C@H](C)CCCC(C)(C)O)CC[C@@H]23)C[C@@H](O)C[C@@H]1O [1,25(OH)2D3, 1,25-dihydroxyvitamin D3]
Given back: 0.653

###

# assay.comment: Plasma pharmacokinetics of 1,25
# Type: in vivo, nu/nu mice
# condition.set: female, nu/nu, mouse, plasma, ip, 20 ug/kg
measurement.label: k el (s⁻¹)
# number only, unit s⁻¹ dropped from output

Asked: Please give the documented k el of C=C1/C(=C\C=C2/CCC[C@]3(C)[C@@H]([C@H](C)CCCC(C)(C)O)CC[C@@H]23)C[C@@H](O)C[C@@H]1O [1,25(OH)2D3, 1,25-dihydroxyvitamin D3]
Given back: 0.000136

###

# assay.comment: Plasma pharmacokinetics of 1,25
# Assay type: in vivo, nu/nu mice
# condition.set: female, nu/nu, mouse, plasma, ip, 20 µg/kg
measurement.label: Tmax

Asked: Provide one value: measured Tmax of C=C1/C(=C\C=C2/CCC[C@]3(C)[C@@H]([C@H](C)CCCC(C)(C)O)CC[C@@H]23)C[C@@H](O)C[C@@H]1O [1,25(OH)2D3, 1,25-dihydroxyvitamin D3]
Given back: 15 to 30 min

###

# assay.comment: Compartmental analysis of plasma and tumor 1,25
# condition.set: female, nu/nu, mouse, tumor (H292 xenograft), ip, 20 ug/kg
measurement.label: half-life (min)
Give the number; min is assumed, so skip it.

Asked: Recall and state the measured half-life for C=C1/C(=C\C=C2/CCC[C@]3(C)[C@@H]([C@H](C)CCCC(C)(C)O)CC[C@@H]23)C[C@@H](O)C[C@@H]1O [1,25(OH)2D3, 1,25-dihydroxyvitamin D3] .
Given back: 39.7

###

# assay.comment: Compartmental analysis of plasma and tumor 1,25
# condition.set: female, nu/nu, mouse, plasma, ip, 20 ug/kg
measurement.label: CL/F (mL/min/kg)
I only need the number, in mL/min/kg, no unit after it.

Asked: Report measured CL/F; entry is C=C1/C(=C\C=C2/CCC[C@]3(C)[C@@H]([C@H](C)CCCC(C)(C)O)CC[C@@H]23)C[C@@H](O)C[C@@H]1O [1,25(OH)2D3, 1,25-dihydroxyvitamin D3]
Given back: 4.85

###

# assay.comment: Compartmental analysis of plasma and tumor 1,25
# condition.set: female, nu/nu, mouse, tumor (H292 xenograft), intraperitoneal, 20 µg/kg
measurement.label: k el (s⁻¹)
Only the number, expressed in s⁻¹, is required.

Asked: Return value of k el for input C=C1/C(=C\C=C2/CCC[C@]3(C)[C@@H]([C@H](C)CCCC(C)(C)O)CC[C@@H]23)C[C@@H](O)C[C@@H]1O [1,25(OH)2D3, 1,25-dihydroxyvitamin D3] , no commentary.
Given back: 0.000292

###

# assay.comment: Compartmental analysis of plasma and tumor 1,25
# condition.set: female, nu/nu, mouse, plasma, ip, 20 ug/kg
measurement.label: half-life (h)
Dear colleague, please return just the value in h, with no unit written.

Asked: Report half-life for C=C1/C(=C\C=C2/CCC[C@]3(C)[C@@H]([C@H](C)CCCC(C)(C)O)CC[C@@H]23)C[C@@H](O)C[C@@H]1O [1,25(OH)2D3, 1,25-dihydroxyvitamin D3]
Given back: 1.56

###

# assay.comment: Plasma pharmacokinetics of 1,25
# Type: in vivo, nu/nu mice
# condition.set: female, nu/nu, mouse, plasma, ip, 20 ug/kg
measurement.label: Vd/F (L/kg)
# number only, unit L/kg dropped from output

Asked: Return value of Vd/F for input C=C1/C(=C\C=C2/CCC[C@]3(C)[C@@H]([C@H](C)CCCC(C)(C)O)CC[C@@H]23)C[C@@H](O)C[C@@H]1O [1,25(OH)2D3, 1,25-dihydroxyvitamin D3] , no commentary.
Given back: 0.592

###

# assay.comment: Tumor
# Format: in vivo, nu/nu mice
# condition.set: female, nu/nu, mouse, tumor (H292 xenograft), ip, 20 ug/kg
measurement.label: k el (s⁻¹)
Dear colleague, please return just the value in s⁻¹, with no unit written.

Asked: Give k el for the following compound: C=C1/C(=C\C=C2/CCC[C@]3(C)[C@@H]([C@H](C)CCCC(C)(C)O)CC[C@@H]23)C[C@@H](O)C[C@@H]1O [1,25(OH)2D3, 1,25-dihydroxyvitamin D3]
Given back: 9.86e-05

###

# assay.comment: Tumor
# Type: in vivo, nu/nu mice
# condition.set: female, nu/nu, mouse, tumor (H292 xenograft), ip, 20 ug/kg
measurement.label: Tmax (h)
Please state the figure in h; there is no need to write the unit.

Asked: Complete the entry with Tmax for C=C1/C(=C\C=C2/CCC[C@]3(C)[C@@H]([C@H](C)CCCC(C)(C)O)CC[C@@H]23)C[C@@H](O)C[C@@H]1O [1,25(OH)2D3, 1,25-dihydroxyvitamin D3]
Given back: 2

###

# assay.comment: Tumor
# Assay type: in vivo, nu/nu mice
# condition.set: female, nu/nu, mouse, tumor (H292 xenograft), ip, 20 ug/kg
measurement.label: half-life (h)
Please give a number only; it is taken to be in h.

Asked: Using the record for C=C1/C(=C\C=C2/CCC[C@]3(C)[C@@H]([C@H](C)CCCC(C)(C)O)CC[C@@H]23)C[C@@H](O)C[C@@H]1O [1,25(OH)2D3, 1,25-dihydroxyvitamin D3] , state its measured half-life.
Given back: 1.95

###

# assay.comment: Plasma pharmacokinetics of 1,25
# Format: in vivo, nu/nu mice
# condition.set: female, nu/nu, mouse, plasma, ip, 20 ug/kg
measurement.label: CL/F (mL/min/kg)
Number only, in mL/min/kg; omit the unit.

Asked: Specify measured CL/F for C=C1/C(=C\C=C2/CCC[C@]3(C)[C@@H]([C@H](C)CCCC(C)(C)O)CC[C@@H]23)C[C@@H](O)C[C@@H]1O [1,25(OH)2D3, 1,25-dihydroxyvitamin D3] .
Given back: 4.82

###

# assay.comment: Plasma pharmacokinetics of 1,25
# Type: in vivo, nu/nu mice
# condition.set: female, nu/nu, mouse, plasma, ip, 20 ug/kg
measurement.label: half-life (h)
Numeric only. Scale: h

Asked: Answer with reported half-life of C=C1/C(=C\C=C2/CCC[C@]3(C)[C@@H]([C@H](C)CCCC(C)(C)O)CC[C@@H]23)C[C@@H](O)C[C@@H]1O [1,25(OH)2D3, 1,25-dihydroxyvitamin D3]
Given back: 1.42

###

# assay.comment: Plasma pharmacokinetics of 1,25
# Format: in vivo, nu/nu mice
# condition.set: female, nu/nu, mouse, plasma, ip, 20 ug/kg
measurement.label: Tmax (min)
Numbers only; they are read as min.

Asked: Give Tmax for C=C1/C(=C\C=C2/CCC[C@]3(C)[C@@H]([C@H](C)CCCC(C)(C)O)CC[C@@H]23)C[C@@H](O)C[C@@H]1O [1,25(OH)2D3, 1,25-dihydroxyvitamin D3]
Given back: 15

###

# assay.comment: Plasma pharmacokinetics of 1,25
# Type: in vivo, nu/nu mice
# condition.set: female, nu/nu, mouse, plasma, ip, 20 ug/kg
measurement.label: AUC(0-t) (ng·h/mL)
Please state the figure in ng·h/mL; there is no need to write the unit.

Asked: Identify AUC(0-t) associated with the molecule C=C1/C(=C\C=C2/CCC[C@]3(C)[C@@H]([C@H](C)CCCC(C)(C)O)CC[C@@H]23)C[C@@H](O)C[C@@H]1O [1,25(OH)2D3, 1,25-dihydroxyvitamin D3]
Given back: 67.4

###

# assay.comment: Plasma pharmacokinetics of 1,25
# Format: in vivo, nu/nu mice
# condition.set: female, nu/nu, mouse, plasma, ip, 20 ug/kg
measurement.label: AUC(0-inf) (ng·h/mL)
Quick reminder: number only, in ng·h/mL, skip the unit.

Asked: Determine from records and report AUC(0-inf) for C=C1/C(=C\C=C2/CCC[C@]3(C)[C@@H]([C@H](C)CCCC(C)(C)O)CC[C@@H]23)C[C@@H](O)C[C@@H]1O [1,25(OH)2D3, 1,25-dihydroxyvitamin D3]
Given back: 69.1
